- tgt: mGPRC6A (mouse GPRC6A) (Mus musculus, UniProt Q8K4Z6)
- Sequence (Q8K4Z6 21-928): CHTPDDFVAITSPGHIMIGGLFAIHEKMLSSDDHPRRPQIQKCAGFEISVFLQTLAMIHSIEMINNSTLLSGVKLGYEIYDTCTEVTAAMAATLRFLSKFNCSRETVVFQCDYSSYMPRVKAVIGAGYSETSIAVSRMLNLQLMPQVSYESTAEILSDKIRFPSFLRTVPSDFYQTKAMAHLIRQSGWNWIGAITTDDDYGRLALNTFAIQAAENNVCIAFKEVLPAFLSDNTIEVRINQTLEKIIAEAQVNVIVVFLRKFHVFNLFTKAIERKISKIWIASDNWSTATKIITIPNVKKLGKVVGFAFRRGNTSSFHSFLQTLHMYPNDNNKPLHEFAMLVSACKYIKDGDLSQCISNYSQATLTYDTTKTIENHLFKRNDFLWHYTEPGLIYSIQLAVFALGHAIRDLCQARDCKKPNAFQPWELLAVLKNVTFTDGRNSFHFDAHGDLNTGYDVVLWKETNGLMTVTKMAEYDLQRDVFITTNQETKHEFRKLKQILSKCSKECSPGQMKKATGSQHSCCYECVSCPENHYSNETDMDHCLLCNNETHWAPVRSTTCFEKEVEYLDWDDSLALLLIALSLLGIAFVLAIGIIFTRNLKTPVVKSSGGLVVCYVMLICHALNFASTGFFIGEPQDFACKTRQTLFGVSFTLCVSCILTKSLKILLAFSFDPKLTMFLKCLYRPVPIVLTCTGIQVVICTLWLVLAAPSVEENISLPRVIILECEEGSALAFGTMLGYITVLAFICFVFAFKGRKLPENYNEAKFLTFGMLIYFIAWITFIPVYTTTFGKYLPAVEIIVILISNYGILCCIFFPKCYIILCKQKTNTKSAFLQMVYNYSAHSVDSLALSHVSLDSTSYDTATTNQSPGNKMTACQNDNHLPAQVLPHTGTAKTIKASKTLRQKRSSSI
- experiment: Ca^2+i mobilisation, FlpIn-TREx-HEK293-mGPRC6A cells
- Format: cell-based
measurementType: pEC50
// pEC50: -log10(molar conc.)

**Query** Can you share its pEC50? I mean this compound: N=C(N)NCCC[C@H](N)C(=O)O [L-arginine]
**Result** 4.80

**Query** Queued: NCCCC[C@H](N)C(=O)O [L-lysine]
**Result** 4.80

====

- tgt: mGPRC6A (mouse GPRC6A) (Mus musculus)
- experiment: Ca^2+i mobilisation, FlpIn-TREx-HEK293-mGPRC6A cells
- Type: cell-based
pEC50: −log10 of the molar value.
Would you kindly list pEC50 for each of these molecules?

**Query** Can you share its pEC50? I mean this molecule: CC(C)[C@H](N)C(=O)O [L-valine]
**Result** < 3.00

**Query** Queued: N[C@@H](Cc1c[nH]cn1)C(=O)O [L-histidine]
**Result** < 3.00

**Query** Queued: NC(=O)CC[C@H](N)C(=O)O [L-glutamine]
**Result** < 3.00
